- study_system: human MPO (Homo sapiens)
- Sequence (P05164 49-745): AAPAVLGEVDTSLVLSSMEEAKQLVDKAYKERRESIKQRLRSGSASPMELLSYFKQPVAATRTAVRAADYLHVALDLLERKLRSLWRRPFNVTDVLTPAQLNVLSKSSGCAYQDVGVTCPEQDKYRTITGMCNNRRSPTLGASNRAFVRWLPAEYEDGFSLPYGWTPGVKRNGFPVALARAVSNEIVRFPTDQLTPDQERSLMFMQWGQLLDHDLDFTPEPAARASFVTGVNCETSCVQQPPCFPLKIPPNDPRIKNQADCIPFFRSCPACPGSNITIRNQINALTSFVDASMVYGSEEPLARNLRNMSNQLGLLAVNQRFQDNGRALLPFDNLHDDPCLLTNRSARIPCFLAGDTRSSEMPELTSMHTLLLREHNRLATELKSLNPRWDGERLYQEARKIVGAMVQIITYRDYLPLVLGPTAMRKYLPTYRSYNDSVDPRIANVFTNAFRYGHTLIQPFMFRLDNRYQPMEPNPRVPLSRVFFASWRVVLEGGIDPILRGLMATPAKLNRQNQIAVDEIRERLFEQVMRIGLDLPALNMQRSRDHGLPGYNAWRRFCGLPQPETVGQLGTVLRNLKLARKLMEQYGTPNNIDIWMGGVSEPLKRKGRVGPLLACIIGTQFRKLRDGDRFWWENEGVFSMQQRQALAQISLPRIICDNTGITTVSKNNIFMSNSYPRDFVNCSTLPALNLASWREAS
- protocol_summary: MPO inhibition screen (TMB oxidation, absorbance), compounds alone or with added tyrosine
- run_conditions: in the presence of tyrosine (final concentration 8 μM); human MPO 2.5 nM; H2O2 100 μM; pH 6.5
measured_attribute: IC50

compound="CC(Cn1c(=S)[nH]c(=O)c2[nH]cnc21)NCc1cccn1C (stereo not drawn)" endpoint_result="2200 nM"
compound=O=c1[nH]c(=S)n(Cc2ccncc2)c2nc[nH]c12 endpoint_result="100 nM"
compound="CC(c1nc2ccccc2[nH]1)n1c(=S)[nH]c(=O)c2[nH]cnc21 (stereo not drawn)" endpoint_result="10000 nM"
